Target: UniProtKB P03956
Sequence (P03956 100-469): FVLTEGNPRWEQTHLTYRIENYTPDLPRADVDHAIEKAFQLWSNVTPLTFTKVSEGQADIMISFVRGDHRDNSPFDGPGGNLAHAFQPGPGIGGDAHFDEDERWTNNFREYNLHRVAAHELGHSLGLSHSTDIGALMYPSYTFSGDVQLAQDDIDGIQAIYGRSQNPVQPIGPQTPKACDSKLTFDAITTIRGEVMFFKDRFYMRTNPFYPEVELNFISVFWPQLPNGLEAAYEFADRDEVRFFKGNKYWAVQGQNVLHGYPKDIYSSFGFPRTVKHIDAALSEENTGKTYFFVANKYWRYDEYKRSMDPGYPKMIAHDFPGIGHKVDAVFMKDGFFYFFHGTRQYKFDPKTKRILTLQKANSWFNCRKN
Assay: MMP-1 inhibition (thiopeptide or fluorescent peptide substrate)
endpoint_name: IC50 (µM)

1. CC#CCOc1ccc(S(=O)(=O)C(C)(Cc2ccc(OCCN3CCCCC3)cc2)C(=O)NO)cc1 (stereo not drawn) [Example 1] ... 2

(P) CC#CCOc1ccc(S(=O)(=O)C(C)(Cc2ccc(-c3ccccc3)cc2)C(=O)NO)cc1 (stereo not drawn) [Example 2]
(Q) CC#CCOc1ccc([S+]([O-])C(CCCCNC(=O)CNC(=O)CCCc2cccs2)C(=O)NO)cc1 (stereo not drawn) [Example 58]
Which numeric IC50 is bigger, that of P or that of Q ? Reply briefly: the label of your chosen item.
Q

----------
Molecular target: TNF-α converting enzyme (TACE) (Homo sapiens)
Sequence (P78536 215-824): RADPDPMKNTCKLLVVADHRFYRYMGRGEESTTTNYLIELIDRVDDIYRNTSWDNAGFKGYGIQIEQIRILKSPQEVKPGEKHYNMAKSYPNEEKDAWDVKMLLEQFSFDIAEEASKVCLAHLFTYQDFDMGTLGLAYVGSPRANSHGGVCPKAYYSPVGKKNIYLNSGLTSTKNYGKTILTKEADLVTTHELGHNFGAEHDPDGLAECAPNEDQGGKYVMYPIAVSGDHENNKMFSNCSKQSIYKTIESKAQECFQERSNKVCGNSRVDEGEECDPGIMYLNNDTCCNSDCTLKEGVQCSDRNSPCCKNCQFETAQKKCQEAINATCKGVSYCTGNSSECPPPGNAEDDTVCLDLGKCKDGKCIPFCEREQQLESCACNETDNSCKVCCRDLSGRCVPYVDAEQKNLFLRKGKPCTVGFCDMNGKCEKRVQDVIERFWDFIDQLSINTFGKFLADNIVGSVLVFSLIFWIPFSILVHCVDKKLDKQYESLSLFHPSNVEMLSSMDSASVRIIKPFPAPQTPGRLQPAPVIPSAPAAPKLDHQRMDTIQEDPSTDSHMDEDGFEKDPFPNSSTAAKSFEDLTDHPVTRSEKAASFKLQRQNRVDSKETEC
Assay: Test procedure for measuring TACE inhibition (fluorescent peptidyl substrate)
Format: biochemical
Details: Table 1
endpoint_name: IC50 (nM)

1) CC#CCOc1ccc(SC(C)C(=O)NO)cc1 (stereo not shown) [Example 4] ... 47.2

(I) CC#CCOc1ccc(S(=O)(=O)C(C)(Cc2ccc(-c3ccccc3)cc2)C(=O)NO)cc1 (stereo not shown) [Example 2]
(II) CC#CCOc1ccc(S(=O)(=O)C(CCCCNC(=O)CNC(=O)C2c3ccccc3Oc3ccccc32)C(=O)NO)cc1 (stereo not shown) [Example 67]
Parameter metric = IC50. Return the lower-valued option from I and II . To answer, give the label that identifies your chosen option.
II
(II: 34.8 nM, I: 207 nM)

(A) CC#CCOc1ccc([S+]([O-])C(CCCCNC(=O)Cc2ccc(Cl)c(Cl)c2)C(=O)NO)cc1 (stereo not shown) [Example 26]
(B) CC#CCOc1ccc(SC(CCCCNC(=O)CNC(=O)c2ccccc2CCc2ccccc2)C(=O)NO)cc1 (stereo not shown) [Example 46]
# return whichever of A and B has the smaller IC50 Select an item and report its label.
A

----------
Molecular target: TNF-α converting enzyme (TACE) (Homo sapiens)
Test: Test procedure for measuring TACE inhibition (fluorescent peptidyl substrate)
Assay type: biochemical
Conditions: second table; IC50 (nM) per footnote a
endpoint_name: IC50 (nM)

# example entries with known answers
1. CC#CCOc1ccc(S(=O)(=O)C(C(=O)NO)c2ccc3ccccc3c2)cc1 (stereo not drawn) ... 495
2. CC#CCOc1ccc([S+]([O-])[C@@H](C(=O)NO)c2ccc(Br)cc2)cc1 (single isomer, unassigned) ... 336

(A) CC#CCOc1ccc(S(=O)(=O)C(C(=O)NO)c2ccc(Cl)cc2)cc1 (stereo not drawn)
(B) CC#CCOc1ccc(SC(C(=O)NO)c2ccccc2)cc1 (stereo not drawn)
Input pair: A , B . Output: entry with lower IC50. Refer to your chosen entry by its label in the reply.
B
